The measurements presented in this section are drawn from the supplement of paper PMC10567573.

B1: KRT33B (parent)
chain: YQSYFKTIEELQQKILCSKSENAR

variants of: B1; experiment: protein stability index of a GFP-peptide fusion (GPS, HEK-293T) (PSI 1-6); higher = more stable; conditions: c terminus: a fixed tail appended;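 also: lentivirally expressed fusions sorted by FACS into six bins by GFP to DsRed ratio, PSI derived from sequencing read proportions per bin multiplied by bin number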
Could you please report measured protein stability index for the items listed next?
Give bare numbers.

Some variants with recorded protein stability index:
Summary for this variant, I8F : protein stability index is 2.01

Summary for this variant, Y4C : protein stability index is 2.01

Summary for this variant, N22V : protein stability index is 1.89

For every listed record, write down its protein stability index.
1. Q13D
2. Q13R

A:
1. 1.55
2. 1.68

For every listed record, write down its protein stability index.
1. S3Y
2. Q2V
3. S20F
4. C17S
5. S3R
6. I15Q
7. Y1L
8. K6P

A:
1. 2.54
2. 2.2
3. 1.97
4. 1.7
5. 1.25
6. 2.09
7. 1.89
8. 2.74

For every listed record, write down its protein stability index.
1. I15C
2. E21G
3. K19H
4. E9W
5. F5L
6. N22W
7. T7C
8. A23G

A:
[3.74, 1.72, 1.76, 1.71, 2.07, 1.9, 2.1, 2.03]

For every listed record, write down its protein stability index.
1. Q12L
2. T7V
3. Y4S
4. S20C
5. C17D

A:
[1.79, 2.25, 1.54, 1.95, 1.65]
